Test system: TNFα
test.protocol: TNFα levels of LPS and nigericin stimulated PBMCs (counter-screen)
Assay type: cell-based
experimental.conditions: Homo sapiens, PBMC, read-out: PMBC TNFα IC50 (μM)
endpoint.name: IC50

INSERT INTO assay_data (entry_smiles, assay_target, endpoint_name, result_value) VALUES
  ('CC(C)c1ncc2c(c1NC(=O)NS(=O)(=O)c1cnn3c1OCCC3)CCC2', 'TNFα', 'IC50', '> 10 µM');

###

assay.target: NLRP3 inflammasome (Homo sapiens, UniProt Q96P20)
Construct: freshly isolated from human peripheral blood from healthy donors; StemCells Technologies; host or cells: primary human PBMCs
Sequence (Q96P20 whole entry): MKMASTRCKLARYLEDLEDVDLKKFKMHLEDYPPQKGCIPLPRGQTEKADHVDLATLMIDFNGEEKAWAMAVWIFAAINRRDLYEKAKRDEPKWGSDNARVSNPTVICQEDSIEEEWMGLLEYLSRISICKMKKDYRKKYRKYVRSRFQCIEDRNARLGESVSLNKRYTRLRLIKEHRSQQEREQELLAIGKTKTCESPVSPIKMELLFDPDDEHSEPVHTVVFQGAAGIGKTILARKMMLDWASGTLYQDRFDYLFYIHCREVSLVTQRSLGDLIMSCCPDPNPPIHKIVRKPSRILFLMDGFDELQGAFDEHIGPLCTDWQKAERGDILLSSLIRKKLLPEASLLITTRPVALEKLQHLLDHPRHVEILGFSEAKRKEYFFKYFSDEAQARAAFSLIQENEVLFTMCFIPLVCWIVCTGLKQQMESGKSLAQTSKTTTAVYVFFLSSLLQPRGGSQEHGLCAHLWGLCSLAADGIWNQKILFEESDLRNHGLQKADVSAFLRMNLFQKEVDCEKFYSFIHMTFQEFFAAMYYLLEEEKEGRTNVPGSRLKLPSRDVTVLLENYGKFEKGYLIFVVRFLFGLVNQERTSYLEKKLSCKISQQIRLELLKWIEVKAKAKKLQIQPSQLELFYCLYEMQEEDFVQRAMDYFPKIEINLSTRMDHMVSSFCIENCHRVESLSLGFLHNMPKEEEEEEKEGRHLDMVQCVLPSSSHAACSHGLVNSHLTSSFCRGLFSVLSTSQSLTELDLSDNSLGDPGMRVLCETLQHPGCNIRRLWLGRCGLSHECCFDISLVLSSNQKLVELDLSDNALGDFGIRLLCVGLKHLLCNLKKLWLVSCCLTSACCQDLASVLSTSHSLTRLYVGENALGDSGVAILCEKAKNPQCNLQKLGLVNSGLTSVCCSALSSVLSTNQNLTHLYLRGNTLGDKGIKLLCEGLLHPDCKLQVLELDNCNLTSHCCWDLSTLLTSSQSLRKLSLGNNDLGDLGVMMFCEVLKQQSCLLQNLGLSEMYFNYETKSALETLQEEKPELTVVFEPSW
test.protocol: NLRP3 inflammasome activation assay in LPS-primed, nigericin-stimulated PBMCs, IL-1β release
Type: cell-based
experimental.conditions: IL-1B pIC50 (μM), LPS 100 ng/mL priming, 10 μM nigericin
endpoint.name: IC50

INSERT INTO assay_data (molecule, result_value) VALUES
  ('COc1cc(OC)nc(NC(=O)NS(=O)(=O)c2cnn3c2OCCC3)n1 [drawing 383]', '> 10 µM'),
  ('COc1cc(C)nc(NC(=O)NS(=O)(=O)c2cnn3c2OCCC3)n1 [drawing 384]', '> 10 µM');

###

assay.target: NLRP3 inflammasome (Homo sapiens)
Construct: freshly isolated from human peripheral blood from healthy donors; StemCells Technologies; host or cells: primary human PBMCs
test.protocol: NLRP3 inflammasome activation assay in LPS-primed, nigericin-stimulated PBMCs, IL-1β release
Type: cell-based
experimental.conditions: PBMC, LPS priming, 10 μM nigericin; read-out: PMBC IL-1β IC50
pIC50: −log10 of the molar value.
endpoint.name: pIC50

INSERT INTO results (molecule, endpoint_name, result_value) VALUES
  ('O=C(Nc1nc(Cl)cc(Cl)n1)NS(=O)(=O)c1cnn2c1OCCC2 [Example 4]', 'pIC50', '< 5.00'),
  ('CC(C)c1cc(C2CC2)nc(C(C)C)c1NC(=O)NS(=O)(=O)c1cnn2c1OCCC2 [Example 45]', 'pIC50', 6.04),
  ('COc1cc(C(C)C)c(NC(=O)NS(=O)(=O)c2cnn3c2OC[C@@H](N(C)C)C3)c(C(C)C)n1 [Example 52a]', 'pIC50', 6.10),
  ('O=C(Nc1c(-c2ccccc2)nc2ccccn12)NS(=O)(=O)c1cnn2c1OCCC2 [Example 10]', 'pIC50', '< 5.00'),
  ('O=C(Nc1nc(-c2ccccc2)cc2c1CCC2)NS(=O)(=O)c1cnn2c1OCCC2 [Example 23]', 'pIC50', '< 5.00'),
  ('C=C(C)c1cncc(C(=C)C)c1NC(=O)NS(=O)(=O)c1cnn2c1OCCC2 [Example 27]', 'pIC50', '< 5.00'),
  ('Cc1cc(C2CC2)nc(NC(=O)NS(=O)(=O)c2cnn3c2OCCC3)n1 [Example 21]', 'pIC50', '< 5.00'),
  ('CC1(C)COc2c(S(=O)(=O)NC(=O)NC3CCCCc4ccccc43)cnn2C1 (centres unmarked) [Example 46]', 'pIC50', '< 5.00'),
  ('O=C(NC1c2ccccc2-c2ccccc21)NS(=O)(=O)c1cnn2c1OCCC2 [Example 5]', 'pIC50', '< 5.00'),
  ('CC1(C)CCc2ccccc2C1NC(=O)NS(=O)(=O)c1cnn2c1OCCC2 (centres unmarked) [Example 1]', 'pIC50', '< 5.00'),
  ('CCn1nc(C(C)C)c(NC(=O)NS(=O)(=O)c2cnn3c2OC[C@@H](OC)C3)c1C(C)C [Example 39a]', 'pIC50', 5.91),
  ('CC(C)c1nn(C(C)C)c(C(C)C)c1NC(=O)NS(=O)(=O)c1cnn2c1OCCC2 [Example 33]', 'pIC50', 5.30),
  ('COc1cc(C(C)C)c(NC(=O)NS(=O)(=O)c2cnn3c2OC[C@@H](OC)C3)c(C(C)C)n1 [Example 37a]', 'pIC50', 6.26),
  ('CC(C)c1ncc2c(c1NC(=O)NS(=O)(=O)c1cnn3c1OCCC3)CCC2 [Example 55]', 'pIC50', '< 5.00');
